# pIC50 annotations
System: SW756;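 further: growth inhibition of human SW756 cells, read out with a cell viability assay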
Experiment: cells
Assay type: functional, cell-based
Conditions: Homo sapiens
Description: SANGER: Inhibition of human SW756 cell growth in a cell viability assay.
pIC50: −log10 of the molar value.
parameter-measured: pIC50

{"columns": ["compound-string", "parameter-measured", "qualifier", "readout-value"],
 "data": [
  ["C/C=C(/C)C(=O)O[C@H]1C(C)=C2[C@H]([C@@H]1OC(=O)CCCCCCC)[C@@](C)(OC(C)=O)C[C@H](OC(=O)CCC)[C@@]1(O)[C@H]2OC(=O)[C@@]1(C)O", "pIC50", "=", 7.89],
  ["COc1cc(Nc2c(C#N)cnc3cc(OCCCN4CCN(C)CC4)c(OC)cc23)c(Cl)cc1Cl", "pIC50", "=", 6.85],
  ["Cn1c(=O)n(-c2ccc(C(C)(C)C#N)cc2)c2c3cc(-c4cnc5ccccc5c4)ccc3ncc21", "pIC50", "=", 6.26],
  ["CC(=O)c1c(C)c2cnc(Nc3ccc(N4CCNCC4)cn3)nc2n(C2CCCC2)c1=O", "pIC50", "<", 5.40],
  ["C[C@]12O[C@H](C[C@]1(O)CO)n1c3ccccc3c3c4c(c5c6ccccc6n2c5c31)CNC4=O", "pIC50", "=", 6.20],
  ["O=c1[nH]c2ccccc2n1C1CCN(Cc2ccc(-c3nc4cc5[nH]cnc5cc4nc3-c3ccccc3)cc2)CC1", "pIC50", "<", 5.59],
  ["Fc1cc(-c2cc[nH]/c(=N/c3ccc(-n4cnc(N5CCOCC5)n4)cc3)n2)cc(N2CCOCC2)c1", "pIC50", "=", 5.69],
  ["CO[C@@]12[C@H](COC(N)=O)C3=C(C(=O)C(C)=C(N)C3=O)N1C[C@@H]1N[C@@H]12", "pIC50", "=", 6.22]
]}
